B1: IKZF1 (parent)
chain: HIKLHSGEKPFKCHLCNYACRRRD

Variants of: B1
Test: protein stability index of a GFP-peptide fusion (GPS, HEK-293T) (PSI 1-6); higher = more stable;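 also: lentivirally expressed fusions sorted by FACS into six bins by GFP to DsRed ratio, PSI derived from sequencing read proportions per bin multiplied by bin number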
Details: c terminus: a fixed tail appended
Listed here are variants together with their documented protein stability index.
// response body must contain only the number

Challenge: protein stability index lookup needed for HIKLHSGEKPFMCHLCNYACRRRD [K12M] , thanks.
Response given: 2.02

Challenge: protein stability index lookup needed for HIKLHSGEKPFKCHLCNYACYRRD [R21Y] , thanks.
Response given: 1.58

Challenge: protein stability index lookup needed for HIKLHSGEWPFKCHLCNYACRRRD [K9W] , thanks.
Response given: 1.26

Moving on to another variant below.
Challenge: protein stability index lookup needed for HIKLHSGEKPFKCHLCNYANRRRD [C20N] , thanks.
Response given: 2.35
